# Tested on: HCMV
# methodDescription: CMV plaque reduction assay in Hs68 cells
# Assay type: cell-based, human cytomegalovirus
# conditionInfo: Human betaherpesvirus 5, 192 h, 8 days, read-out: HCMV-1 IC50
# Method: In 12-well tissue culture dishes, 1.5×10E5 or Hs68 cells (human […] fibroblast cell line) were plated per well with 2 ml of DMEM 10% fetal bovine serum and incubated in 5% CO2/air at 37° C. overnight or until cells were ready. The medium was then removed and the cells inoculated with 0.5 ml (containing 200 pfu/ml diluted in DMEM 2% FBS) of HCMV virus in each well. […]
testReadout: IC50 (nM)

>>> recordedresult("Nc1ccn([C@@H]2CO[C@H](CO)O2)c(=O)n1 [COMPOUND #1]")
700

The measurements presented in this section are drawn from patent US6583149B1.
